B1: library; numbered along this chain (parent)
chain: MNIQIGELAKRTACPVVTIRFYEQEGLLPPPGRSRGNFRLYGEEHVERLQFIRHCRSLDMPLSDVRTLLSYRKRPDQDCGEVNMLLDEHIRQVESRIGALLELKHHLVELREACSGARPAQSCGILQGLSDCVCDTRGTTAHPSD

Variants of: B1
Test: sfGFP reporter fluorescence (15 h) (µM FITC); higher = stronger transcriptional activation
Details: library round: Round 1; ligand: 30 µM Zn
Think of 0.3 as a floor: if sfGFP reporter fluorescence stands on it or above, it is Y; beneath it, N.

ITEM_SEQUENCE	CATEGORY_LABEL
MNIQIGELAKRTACPVVTIRFYEQEGLLPPPGRSRGNFRLYGEEHVERLQFIRHCRSLDMPLSDVRTLLSYRKRPDQDCGEVNMLLDEHIRQVESRIGALLELKHHLVELREACSGARPAQSCGILQGLSSCVCDTRGTTAHASD	Y
MNIQIGELAKRTACPVVTIRFYEQEGLLPPPGRSRGNFRLYGEEHVERLQFIRHCRSLDMPLSDVRTLLSYRKRPDQDCGEVTMLLDEHIRQVESRIGALLELKHHLLELREACSGARPAQSCGILQGLSCCVCDTRGTTAHPSD	N
MNIQIGELAKRTACPVVTIRFYEQEGLLPPPGRSRGNFRLYGEEHVERLQFIRHCRSLDMPLSDVRTLLSYRKRPDQDCGEVNMLLDEHIRQVESRIGALLELKHHCVELREACSGARPAQSCAILQMLSDCVCDTRGTTAHPSD	Y
MNIQIGELAKRTACPVVTIRFYEQEGLLPPPGRSRGNFRLYGEEHVERLQFIRHCRSLDMPLSDVRTLLSYRKRPDQDCGEVNMLLDEHIRQVESRIGALLELVHHLRELREACSGARPAQSCGILQGLSDCVCDTRGTTAHPSD	Y
MNIQIGELAKRTACPVVTIRFYEQEGLLPPPGRSRGNFRLYGEEHVERLQFIRHCRSLDMPLSDVRTLLSYRKRPDQDCGEVSMLLDEHIRQVESRIGALLELKHHLVELRLACSGARPAQSCGILQGLSDCVCDTRGTTAHPSD	N
MNIQIGELAKRTACPVVTIRFYEQEGLLLPPGRSRGNFRLYGEEHVERLQFIRHCRSLDMPLSDVRTLLSYRKRPDQDCGEVNMLLDEHIRQVESRIGALLELKHHLVELREACSGARPAQSCGILQGLSDCVCDTRGTTAHPSD	N
MNIQIGELAKRTACPVVTIRFYEQEGLLPPPGRSRGNFRLYGEEHVERLQFIRHCRSLDMPLSDVRTLLSYRKRPDQDCGEVTMLLDEHIRQVESRIGALLELKHHLVFLREACSGARPAQSCGILQGLSDCVCDTRGTTAHPSD	Y
MNIQIGELAKRTACPVVTIRFYEQEGLLPPPGRSRGNFRLYGEEHVERLQFIRHCRSLDMPLSDVRTLLSYRKRPDQDCGEVNMLLDEHIRQVESRIGALLELVHHLVELREACSGARPAQSCGILQMLSDCVCATRGTTAHPSD	Y
MNIQIGELAKRTACPVVTIRFYEQEGLLPPPGRSRGNFRLYGEEHVERLQFIRHCRSLDMPLSDVRTLLSYRKRPDQDCGEVTMLLDEHIRQVESRIGALLELKHHLVELRMACSGARPAQSCGILQGLSDCVCDTRGTTAHPSD	N
MNIQIGELAKRTACPVVTIRFYEQEGLLPPPGRSRGNFRLYGEEHVERLQFIRHCRSLDMPLSKVRTLLSYRKRPDQDCGEVNMLLDEHIRQVESRIGALLELKHHLVELREAISGARPAQSCGILQGLSDCVCDTRGTTAHPSD	N
MNIQIGELAKRTACPTVTIRFYEQEGLLPPPGRSRGNFRLYGEEHVERLQFIRHCRSLDMPLSDVRTLLSYRKRPDQDCGEVNMLLDEHIRQVESRIGALLELVHHLVELREACSGARPAQSCGILQGLSDCVCDTRGTTAHPSD	Y
MNIQIGELAKRTACPVVTIRFYEQEGLLPPPGRSRGNFRLYGEEHVERLQFIRHCRSLDMPLSDVRTLLSYRKRPDQDCGEVIMLLDEHIRQVESRHGALLELKHHLVELREACSGARPAQSCGILQGLSDCVCDTRGTTAHPSD	N
MNIQIGELAKRTACPVVTIRFYEQEGLLPPPGRSRGNFRLYGEEHVERLQFIRHCRSLDMPLSTVRTLLSYRKRPDQDCGEVNMLLDEHIRQVESRIGALLELTHHLVELREACSGARPAQSCGILQGLSDCVCDTRGTTAHPSD	Y
MNIQIGELAKRTACPVVTIRFYEQEGLLPPPGRSRKNFRLYGEEHVERLQFIRHCRSLDMNLSDVRTLLSYRKRPDQDCGEVNMLLDEHIRQVESRIGALLELKHHLVELREACSGARPAQSCGILQGLSDCVCDTRGTTAHPSD	Y
MNIQIGELAKRTACPVVTIRFYEQEGLLPPPGRSRGNFRLYGEEHVERLQFIRHCRSLDMPLSDVRTLLSYRKRPDQDCGEVNMLLDEHIRQVESRIGALLELKHHLVELREACSGARPAQSCGILQGLSACVCATRGTTAHASD	Y
MNIQIGELAKRTACPVVTIRFYEQEGLLPPPGRSRGNFRLYGEEHVERLQFIRHCRSLDMPLSDVRTLLSYRKRPDQDCGEVNMLLDEHIRQVESRIGALLELKHHLVELREACSGARPAQSCGILQHLSCCVCDTRGTTAHPSD	N
MNIQIGELAKRTACPVVTIRFYEQEGLLPPPGRSRGNFRLYGEEHVERLQFIRHCRSLDMPLSDVRTLLSYRKRPDQDCGEVNMLLDEHIRQVDSRIGALLELVHHLVELREACSGARPAQSCGILQGLSDCVCDTRGTTAHPSD	Y
MNIQIGELAKRTACPVVTIRFYEQEGLLPPPGRSRGNFRLYGEEHVERLQFIRHCRSLDMPLSDVRTLLSYRKRPDQDCGEVTMLLDEHIRQVESRIGALLELKHHFVELREACSGARPAQSCGILQGLSDCVCDTRGTTAHPSD	N
MNIQIGELAKRTACPVVTIRFYEQEGLLPPPGRSRGNFRLYGEEHVERLQFIRHCRSLDMPLSDVRTLLSYRKRPDQDCGEVNMLLDEHIRQVESRIGALLELKHHLVELREACSGARPAQSCGILQGMSDCVCDTRGTTAHTSD	N
MNIQIGELAKRTACPVVTIRFYEQEGLLPPPGRSRGNFRLYGEEHVERLQFIRHCRSLDMPLSDVRTLLSYRKRPDQDCGEVNMLLDEHIRQVESRIGALLELKHHLVELREACSGARPAQSCGILQGLSDCVCATRGTTAHMSD	Y
MNIQIGELAKRTACPVVTIRFYEQEGLLPPPGRSRGNFRLYGEEHVERLQFIRHCRSLDMPLSDVRTLLSYRKRPDQDCGEVNMLLDEHIRQVESRIGALLELKHHCVHLREACSGARPAQSCGILQGLSDCVCDTRGTTAHPSD	Y
MNIQIGELAKRTACPVVTIRFYEQEGLLPPPGRSRGNFRLYGEEHVERLQFIRHCRSLDMNLSDVRTLLSYRKRPDQDCGEVNMLLDEHIRQVESRIGALLELKHHLVELREACSGARPAQSCGILQGLSDCVCATRGTTAHPSD	Y
